tested on: A549 NSCLC; experiment: NCI tumour cell line growth inhibition, 48 h; in the data active = GI50 below about 0.43 µM; inactive = the rest
Where a SMILES comes first, the peptide text is derived from it. [ ]: non-standard residue; d: D form. NMeY = CN[C@@H](Cc1ccc(O)cc1)C(=O)O; dNMeF = CN[C@H](Cc1ccccc1)C(=O)O; Sar = CNCC(=O)O
Please state which outcome applies, choosing from active, inactive

Recorded results for 4 compounds are shown here.
Compound: CC[C@H](C)[C@@H]1NC(=O)[C@H](Cc2ccc(O)cc2)N(C)C(=O)[C@H](Cc2ccccc2)NC(=O)CN(C)C(=O)[C@@H]2CCCN2C(=O)[C@@H](Cc2ccccc2)N(C)C(=O)[C@H](CC(C)C)NC1=O (cyclo(F[NMeY]IL[dNMeF]P[Sar]))
Label Value: active
--
Compound: CCC[CH2][Ge]([CH2]CCC)([CH2]CCC)[O]C(=O)C(OC)c1ccccc1 (stereo not drawn)
Label Value: inactive
--
Compound: Nc1c(C(=O)c2cccc(C#CCN3CCOCC3)c2)cnn1-c1ccc(F)cc1
Label Value: inactive
--
Compound: COc1ccc(-c2cc(-c3cn[nH]c3-c3ccccn3)ccn2)cc1
Label Value: inactive

For COc1cc2nc(N3CCCC3)nc(Nc3ccccc3)c2cc1OC , which call appears in the assay record?
inactive

Field: outcome | Entry: C#C[C@@]1(O)[C@@H](CO)O[C@@H](n2ccc3c(N)ncnc32)[C@@H]1O
inactive

State the result this test recorded for COc1c(NC(=O)CC(C)=O)[c]([Hg][O]C(C)=O)c(OC)c(Cl)[c]1[Hg][O]C(C)=O .
inactive

Just curious, what result did CCC[CH2][Sn]([CH2]CCC)([O]C(=O)c1cc(OC)c(OC)cc1OC)[O]C(=O)c1cc(OC)c(OC)cc1OC get here?
inactive
